These measurements were taken from PubChem BioAssay AID1745848.

# test-description: Confirmatory qHTS for Inhibitors of ATXN expression; further: nearly all actives have a fitted effect of over 65% in size; further: potency means the concentration at half of the fitted maximal effect
# experimental-parameters: ATXN2-luciferase reporter cells, luminescence, 24 h; series mostly up to 11.5 µM
The whole screen tested about 2,100 compounds, of which about 940 (45%) were called active. Roughly 48% stayed inconclusive and do not appear here. The set was probably picked from earlier hits. This is one part of the list.
endpoint-name: Potency

The examples below pair each entry with its known result.
CCCCCn1c(=N)n(CC(O)COc2ccccc2OC)c2ccccc21 (configuration not stated) | 2.51 µM (active)
COc1cccc(-c2ccc(NC(=O)C3CCCN(Cc4cnn(C(C)C)c4)C3)cc2)c1 (configuration not stated) | 3.16 µM (active)
CC1CCN(Cc2c(C(=O)N/N=C/c3cc(Cl)ccc3O)nnn2-c2nonc2N)CC1 | 3.55 µM (active)
Cc1cccc(OCCn2cc(/C=N/NC(=O)c3ccncc3)c3ccccc32)c1 | inactive
Cc1ccc(O)c(CNCCNCc2cc(C)ccc2O)c1 | 14.1 µM (active)

Quick note, Potency for `CCn1c2ccccc2c2cc(/C=C(/C#N)C(N)=S)ccc21` landed at 0.447 µM (active)

For `COc1ccc2nc(C)cc(Nc3ccc(N4CCOCC4)cc3)c2c1` the compound record lists Potency as 15.8 µM (active)

Reported Potency ( `O=C1/C(=C/c2ccncc2)CCC/C1=C\c1ccncc1` ) = 5.62 µM (active)

====

# test-description: Confirmatory qHTS for Inhibitors of ATXN expression; further: nearly all actives have a fitted effect of over 65% in size
# experimental-parameters: ATXN2-luciferase reporter cells, luminescence, 24 h; series mostly up to 11.5 µM
Out of some 2,100 compounds screened, about 940 (45%) were called active. Another 48% or so got no clear call; they are omitted. Calls come from the whole dose curve; as a rule, active = well fitted inhibition curve with a large enough effect; inconclusive = small, poorly fitted or top-dose-only effect; inactive = no such curve, though single readings can be large or run the other way. So high a share suggests a set chosen from earlier hits. The list shows a part of the results.
Pick one: active, inactive

Solved cases below.
CCCCOc1ccc(C(=O)NNC(=S)NC(=O)CC)cc1 | active
O=C(CCc1ccccc1)N/N=C/c1cc(Br)ccc1O | active
C[C@@H]1C[C@@H]2O[C@H]2/C=C\C=C\C(=O)Cc2c(Cl)c(O)cc(O)c2C(=O)O1 | active
COc1ccc(Nc2c3ccccc3nc3ccccc23)cc1 | active
COc1ccc(N2C3=C(CC4=C2CC(C)(C)CC4=O)C(=O)CC(C)(C)C3)cc1 | inactive

Could you please tell me the result logged for `O=C1N(c2ccccc2)C[C@@H]2C[C@@H](c3cc4ccccc4o3)N3CCC[C@@]123` in this assay?
active

Per the records of this test, what outcome belongs to O=C(NCC(=O)N1CC(O)CC1C(=O)N1CCCC1C(=O)OCc1ccccc1)OCc1ccccc1 (stereo not given) ?
active

Given `Cn1c(/C=C/c2ccc(Cl)cc2Cl)c([N+](=O)[O-])c(=O)n(C)c1=O` , state the outcome it received in this test.
active

I'd appreciate the recorded outcome for `CCCc1cc(=O)[nH]c(-n2[nH]c3c(c2=O)CCCC3)n1` from this test.
active

====

# test-description: Confirmatory qHTS for Inhibitors of ATXN expression; further: nearly all actives have a fitted effect of over 65% in size; further: potency means the concentration at half of the fitted maximal effect
# experimental-parameters: ATXN2-luciferase reporter cells, luminescence, 24 h; series mostly up to 11.5 µM
Among all 2,100 compounds or so, about 940 (45%) were called active. Not shown: some 48% with an inconclusive outcome. The set was probably picked from earlier hits. The list shows a part of the results.
// reported Potency for each item listed

CCOc1ccc2[nH]c3c(NCCc4ccc(OC)c(OC)c4)ncnc3c2c1 | 15.8 µM (active)
Fc1ccc2[nH]c3c(NCc4ccccc4)ncnc3c2c1 | 1.12 µM (active)
CCc1ccc(N(CC)C(=O)c2ccc3c(Cl)c4c(nc3c2)CCC4)cc1 | 3.55 µM (active)
CCOC(=O)c1c(NC(=O)COC(=O)CNC(=O)c2ccco2)sc(C)c1C | 2.51 µM (active)
O=C(N/N=C/c1cc(Br)ccc1O)c1ccncc1 | 0.794 µM (active)

Please fill in: Potency reported for `COc1ccc(O)c(/C=N/NC(=O)c2ccc(OCc3cccc(Br)c3)cc2)c1` = 0.891 µM (active)

Reported Potency ( `Cc1ccc(-c2cc(-c3ccccc3)nc(NN)n2)cc1` ) = 35.5 µM (active)

The compound identified as `COc1ccc(CNc2ncnc3c2[nH]c2ccccc23)cc1` registered its Potency at 8.91 µM (active)

Sample `CCOc1ccc(CN(C)c2nc(-c3cccnc3)nc3ccccc23)cc1OC` ; Potency observed: 25.1 µM (active)

Documented Potency of `Cn1c(SCC(=O)N/N=C/c2ccc([N+](=O)[O-])s2)nnc1-c1ccc(Cl)cc1` : 10 µM (active)

In plain terms, `Clc1ccc(SCc2cc(N3CCOCC3)nc(-c3ccccn3)n2)cc1` has a documented Potency of 5.01 µM (active)

====

Examples of compounds with documented Potency follow.
# test-description: Confirmatory qHTS for Inhibitors of ATXN expression; further: nearly all actives have a fitted effect of over 65% in size; further: potency means the concentration at half of the fitted maximal effect
# experimental-parameters: ATXN2-luciferase reporter cells, luminescence, 24 h; series mostly up to 11.5 µM
# Excerpt: PI: Daniel Scoles Ph.D. University of Utah School of Medicine, Salt Lake City, Utah MLPCN Grant: NS073009 Spinocerebellar ataxia type 2 (SCA2) is a multisystem neurodegenerative disease caused by a dominantly acting mutation leading to expansion of a polyQ domain in the ataxin-2 protein (ATXN2). SCA2 patients develop progressive ataxia and later lose function in other neuronal systems. […] Here we describe a 5-7 dose quantitative high thoroughput screen (qHTS) for compounds lowering ATXN2 expression. […]
Among all 2,100 compounds or so, about 940 (45%) were called active. Not shown: some 48% with an inconclusive outcome. The set was probably picked from earlier hits. This is one part of the list.

Previously resolved entries follow.
Cc1cc(C(=O)CN2C(=O)c3ccccc3S2(=O)=O)c(C)n1CC1CCCO1 (stereo unspecified) | 0.355 µM (active)
CC1=CC(C)(C)Nc2ccc(OC(=O)CN3C(=O)CCC3=O)cc21 | 3.55 µM (active)

The compound listed as `O=C(CN1C(=O)c2ccccc2S1(=O)=O)Nc1ncc(Cl)cc1Cl` has a reported Potency of 2.82 µM (active)

Entry `O=C(Nc1ccc(CN2CCCCC2)cc1)Nc1ccc(Br)cc1Cl` ; Potency = 25.1 µM (active)

response.value for `O=C(CN1C(=O)c2ccccc2S1(=O)=O)c1ccc(Cl)cc1Cl` (field: Potency) = 0.891 µM (active)

====

# test-description: Confirmatory qHTS for Inhibitors of ATXN expression; further: nearly all actives have a fitted effect of over 65% in size
# experimental-parameters: ATXN2-luciferase reporter cells, luminescence, 24 h; series mostly up to 11.5 µM
About 940 (45%) of roughly 2,100 compounds were called active. Roughly 48% stayed inconclusive and do not appear here. The call rests on the fitted dose curve; in most records, active means well fitted inhibition curve with a large enough effect; inconclusive means small, poorly fitted or top-dose-only effect; inactive means no such curve, though single readings can be large or run the other way. So high a share suggests a set chosen from earlier hits. The list shows a part of the results.
Outcome (select one): YES = active, NO = inactive

Look over these answered cases.
O=C(CC1NCCc2ccccc21)Nc1ccc(Cl)cc1 (stereo unspecified) | NO
O=C(CSc1n[nH]c(-c2ccccn2)n1)Nc1cccc(Cl)c1 | YES
O=C(CSc1n[nH]c(-c2ccccn2)n1)Nc1ccc(Cl)cc1 | YES
Cc1ccc(NC(=O)CSc2n[nH]c(-c3ccccn3)n2)cc1 | YES
CC(C)(C)c1cc(C(=O)NN)n(Cc2ccc(Cl)cc2Cl)n1 | YES

In the following, a different molecule is considered.
Can you look up the reported call for `O=C(CSc1n[nH]c(-c2ccccn2)n1)Nc1ccc(F)cc1` for me?
YES

====

# test-description: Confirmatory qHTS for Inhibitors of ATXN expression; further: nearly all actives have a fitted effect of over 65% in size
# experimental-parameters: ATXN2-luciferase reporter cells, luminescence, 24 h; series mostly up to 11.5 µM
In all, about 2,100 compounds went through this assay and about 940 (45%) were called active. Roughly 48% stayed inconclusive and do not appear here. The call rests on the fitted dose curve; in most records, active means well fitted inhibition curve with a large enough effect; inconclusive means small, poorly fitted or top-dose-only effect; inactive means no such curve, though single readings can be large or run the other way. The set was probably picked from earlier hits. This is one part of the list.
Give one outcome, nothing more. List: yes (1) (active), no (0) (inactive)

Before answering, review these 6 worked examples.
Cc1ccc2nc(N(CCCN(C)C)C(=O)c3ccc(S(=O)(=O)N4CCCCCC4)cc3)sc2c1 | yes (1)
CC(CCc1ccccc1)NC(=O)c1ccc(C(=O)NC(C)CCc2ccccc2)cc1 (stereo not given) | yes (1)
Cc1ccn2c(Nc3ccccc3C)c(-c3ccccn3)nc2c1 | yes (1)
COc1cccc(CNc2nc3cc(-c4ccc(C(=O)N5CCN(C)CC5)cc4)sc3c(=O)n2C)c1 | yes (1)
CCN(c1ccccc1)S(=O)(=O)c1ccc(C(=O)N(CCCN(C)C)c2nc3c(C)cccc3s2)cc1 | yes (1)
Cc1ccc2nc(-c3ccccn3)c(NC3CCCC3)n2c1 | no (0)

Answer briefly: the call reported for `Cc1ccc(Nc2c(-c3ccccn3)nc3cccc(C)n23)cc1` in this assay.
yes (1)

Call for entry `Cc1ccn2c(Nc3ccccc3)c(-c3ccccn3)nc2c1` :
yes (1)

Look up the recorded call for `Cc1ccccc1C(=O)N1CCN(c2ccc(NC(=O)c3ccc4c(c3)OCCO4)cc2)CC1` in this test.
yes (1)

Give the logged outcome of this assay for the following molecule: `Cc1ccc(NC(=O)CNc2cccc(Br)c2)cc1S(=O)(=O)N1CCOCC1`
no (0)
